target: BTK (Homo sapiens, UniProt Q06187); test: Degradation of BTK protein in Namalwa cells (Western blot; DC50, Dmax); conditions: BTK degradation; cell line not given
Sequence (Q06187 whole entry): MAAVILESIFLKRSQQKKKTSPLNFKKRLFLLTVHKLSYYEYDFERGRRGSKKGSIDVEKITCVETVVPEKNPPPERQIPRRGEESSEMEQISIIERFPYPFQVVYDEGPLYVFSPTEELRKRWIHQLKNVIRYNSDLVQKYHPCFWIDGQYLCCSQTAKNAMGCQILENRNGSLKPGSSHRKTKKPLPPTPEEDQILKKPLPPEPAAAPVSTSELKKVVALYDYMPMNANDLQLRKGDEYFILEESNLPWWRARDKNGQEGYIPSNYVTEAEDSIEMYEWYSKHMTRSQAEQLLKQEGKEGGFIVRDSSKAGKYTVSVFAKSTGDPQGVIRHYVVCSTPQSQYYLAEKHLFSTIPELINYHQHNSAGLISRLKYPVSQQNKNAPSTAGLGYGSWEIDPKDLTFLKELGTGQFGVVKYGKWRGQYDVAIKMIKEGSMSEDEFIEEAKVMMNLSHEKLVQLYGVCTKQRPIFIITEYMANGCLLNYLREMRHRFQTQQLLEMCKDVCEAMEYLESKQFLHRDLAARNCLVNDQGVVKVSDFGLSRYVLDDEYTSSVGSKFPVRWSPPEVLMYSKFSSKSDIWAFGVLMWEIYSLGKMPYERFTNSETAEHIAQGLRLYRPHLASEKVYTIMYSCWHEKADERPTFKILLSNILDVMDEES
Provide the reported DC50 of each item.

// known answers, use as guide
Nc1ncnc2c1c(-c1ccc(Oc3ccccc3)cc1)nn2C1CCN(C2CCN(C(=O)N3CCC(CCN4CCN(c5ccc6c(c5)C(=O)N(C5CCC(=O)NC5=O)C6=O)CC4)CC3)CC2)CC1 (centres unmarked)    10 to 50 nM
NC(=O)c1c(-c2ccc(Oc3ccccc3)cc2)nn2c1NCCC2C1CCN(C2CCN(C(=O)N3CCN(C4CCN(c5ccc6c(c5)CN(C5CCC(=O)NC5=O)C6=O)CC4)CC3)CC2)CC1 (centres unmarked)    < 10 nM
NC(=O)c1c(-c2ccc(Oc3ccccc3)cc2)nn2c1NCC[C@H]2C1CCN(C2CCN(C(=O)N3CCN(Cc4ccc5c(c4)C(=O)N(C4CCC(=O)NC4=O)C5=O)CC3)CC2)CC1 (some centres unmarked)    > 50 nM
Nc1ncnc2c1c(-c1ccc(Oc3ccccc3)cc1)nn2C1CCN(C2CCN(CCN3CCC(c4ccc5c(c4)C(=O)N(C4CCC(=O)NC4=O)C5=O)CC3)CC2)CC1 (centres unmarked)    10 to 50 nM
NC(=O)c1c(-c2ccc(Oc3ccccc3)cc2)nn2c1NCC[C@H]2C1CCN(C2CCN(C(=O)N3CCC(N4CCN(c5ccc6c(c5)C(=O)N(C5CCC(=O)NC5=O)C6=O)CC4)CC3)CC2)CC1 (some centres unmarked)    < 10 nM

List reported DC50 for each of these compounds:
1. Nc1ncnc2c1c(-c1ccc(Oc3ccccc3)cc1)nn2C1CCN(C2CCN(C(=O)N3CCC(CC4CCN(c5ccc6c(c5)C(=O)N(C5CCC(=O)NC5=O)C6=O)CC4)CC3)CC2)CC1 (centres unmarked)
2. NC(=O)c1c(-c2ccc(Oc3ccccc3)cc2)nn2c1NCC[C@H]2C1CCN(C(=O)N2CCC(CN3CCC(c4ccc5c(c4)CN(C4CCC(=O)NC4=O)C5=O)CC3)CC2)CC1 (some centres unmarked)

1: 10 to 50 nM; 2: < 10 nM

Fill in the blank: the reported DC50 of Nc1ncnc2c1c(-c1ccc(Oc3ccccc3)cc1)nn2C1CCN(C2CCN(C(=O)N3CCC(CCC4CCN(c5ccc6c(c5)CN(C5CCC(=O)NC5=O)C6=O)CC4)CC3)CC2)CC1 (centres unmarked) is ____. < 10 nM

====

biological target: BTK (Homo sapiens); assay: Degradation of BTK protein in Namalwa cells (Western blot; DC50, Dmax); conditions: BTK degradation; cell line not given
Provide the reported DC50 of each item.

List reported DC50 for each of these molecules:
1. NC(=O)c1c(-c2ccc(Oc3ccccc3)cc2)nn2c1NCC[C@H]2C1CCN(C2CCN(C(=O)N3CCC(CN4CCN(c5ccc6c(c5)C(=O)N(C5CCC(=O)NC5=O)C6=O)CC4)CC3)CC2)CC1 (stereo partly drawn)
2. NC(=O)c1c(-c2ccc(Oc3ccccc3)cc2)nn2c1NCCC2C1CCN(CC2CCN(CCN3CCN(c4ccc5c(c4)C(=O)N(C4CCC(=O)NC4=O)C5=O)CC3)CC2)CC1 (stereo not drawn)
3. NC(=O)c1c(-c2ccc(Oc3ccccc3)cc2)nn2c1NCC[C@H]2C1CCN(C(=O)N2CCN(CCC3CCN(c4ccc5c(c4)C(=O)N(C4CCC(=O)NC4=O)C5=O)CC3)CC2)CC1 (stereo partly drawn)

10 to 50 nM
> 50 nM
10 to 50 nM
